Origin of the recorded values: patent US9732094B2

# TEST SYSTEM: DNA-PK (Homo sapiens (Human))
# ASSAY COMMENT: DNA-PK assay (biochemical), flashplate 33P-ATP kinase assay
# APPLIED CONDITIONS: biochemical DNA-PK assay
MEASURED ENDPOINT: IC50

Some molecules with recorded IC50:
{"columns": ["MOLECULE", "IC50"],
 "data": [
  ["OC(c1ccc(F)c(-c2ncnc3cc(N4CCOCC4)ccc23)c1)c1nnc2ccccn12 (stereo not drawn) [Example 343]", "< 3 nM"],
  ["NC(=O)C(c1cccnc1)c1ccc(F)c(-c2ncnc3cc(N4CCOCC4)ccc23)c1 (stereo not drawn)", "7 to 30 nM"],
  ["NC(=O)C(c1cccnc1)c1cc(-c2ncnc3cc(N4CCOCC4)ccc23)c(F)cc1F (stereo not drawn)", "3 to 7 nM"],
  ["COc1ccc(C(C(N)=O)c2cc(-c3ncnc4cc(N5CCOCC5)ccc34)ccc2Cl)nn1 (stereo not drawn)", "> 30 nM"],
  ["Cn1c(C(O)c2cc(-c3ncnc4cc(N5CCOCC5)ccc34)ccc2Cl)cccc1=O (stereo not drawn) [Example 400]", "< 3 nM"],
  ["OC(c1cc(-c2ncnc3cc(N4CCOCC4)ccc23)ccc1Cl)c1ncnc2ccoc12 (stereo not drawn) [Example 432]", "7 to 30 nM"]
]}

IC50 for DNA-PK (Homo sapiens (Human)) with input OC(c1cc(-c2ncnc3cc(N4CCOCC4)ccc23)c(F)cc1F)c1nncc2ccoc12 (stereo not drawn) equals < 3 nM

The reported DNA-PK (Homo sapiens (Human)) IC50 of CNC(=O)C(c1cc(-c2ncnc3cc(N4CCOCC4)ccc23)c(F)cc1Cl)c1nccnc1OC (stereo not drawn) is 7 to 30 nM

IC50 of Cc1cc(C(O)c2ccc(F)c(-c3ncnc4cc(N5CCOCC5)ccc34)c2)n(C)c(=O)c1 (stereo not drawn) , assay on DNA-PK (Homo sapiens (Human)), is < 3 nM

Test item CCOc1cccnc1C(O)c1ccc(F)c(-c2ncnc3cc(N4CCOCC4)ccc23)c1 (stereo not drawn) ; DNA-PK (Homo sapiens (Human)); reported IC50 was 3 to 7 nM

Field IC50 (DNA-PK (Homo sapiens (Human))), entry OC(c1ccc(F)c(-c2ncnc3cc(N4CCOCC4)ccc23)c1)c1ncccc1Cl (stereo not drawn) [Example 466] : 7 to 30 nM

// molecule Cn1c(C(O)c2cc(-c3ncnc4cc(N5CCOCC5)ccc34)c(F)cc2Cl)cccc1=O (stereo not drawn) [Example 382] , assay DNA-PK (Homo sapiens (Human)), IC50 value: 7 to 30 nM

###

# TEST SYSTEM: DNA-PK phosphorylation at serine 2056 (Homo sapiens (Human))
# ASSAY COMMENT: DNA-PK phosphorylation at serine 2056 (cellular), bleomycin-treated HCT116 cells, ELISA
# Format: cell-based
# APPLIED CONDITIONS: cellular DNA-PK phosphorylation at serine 2056, HCT116; read-out: IC50 pDNA-PK
MEASURED ENDPOINT: IC50

Consider the reported IC50 for these molecules:
{"columns": ["MOLECULE", "MEASURED ENDPOINT", "RESULT VALUE"],
 "data": [
  ["COc1cncnc1C(O)c1cc(-c2ncnc3cc(N4CCOCC4)ccc23)c(F)cc1Cl (stereo not shown)", "IC50", "0.5 to 5 µM"],
  ["Cc1cccnc1C(O)c1ccc(F)c(-c2ncnc3cc(N4CCOCC4)ccc23)c1 (stereo not shown)", "IC50", "< 0.5 µM"],
  ["CNC(=O)C(c1cc(-c2ncnc3cc(N4CCOCC4)ccc23)c(F)cc1Cl)c1nccnc1C (stereo not shown)", "IC50", "10 to 30 µM"],
  ["Cn1c(C(C(N)=O)c2cc(-c3ncnc4cc(N5CCOCC5)ccc34)c(F)cc2Cl)cccc1=O (stereo not shown)", "IC50", "10 to 30 µM"],
  ["Cn1c(C(O)c2cc(-c3ncnc4cc(N5CCOCC5)ccc34)c(F)cc2F)cccc1=O (stereo not shown) [Example 380]", "IC50", "0.5 to 5 µM"],
  ["OC(c1cc(-c2ncnc3cc(N4CCOCC4)ccc23)c(F)cc1Cl)c1nccn2cccc12 (stereo not shown)", "IC50", "< 0.5 µM"]
]}

Attention now turns to another entry.
IC50 measured on OC(c1cc(-c2ncnc3cc(N4CCOCC4)ccc23)c(F)cc1Cl)c1ncnc2sccc12 (stereo not shown) = < 0.5 µM
